Values were extracted from patent US7109216B2.

Listed compounds paired with reported Ki
Target: human cannabinoid CB1 receptor (Homo sapiens)
Sequence (P21554 whole entry): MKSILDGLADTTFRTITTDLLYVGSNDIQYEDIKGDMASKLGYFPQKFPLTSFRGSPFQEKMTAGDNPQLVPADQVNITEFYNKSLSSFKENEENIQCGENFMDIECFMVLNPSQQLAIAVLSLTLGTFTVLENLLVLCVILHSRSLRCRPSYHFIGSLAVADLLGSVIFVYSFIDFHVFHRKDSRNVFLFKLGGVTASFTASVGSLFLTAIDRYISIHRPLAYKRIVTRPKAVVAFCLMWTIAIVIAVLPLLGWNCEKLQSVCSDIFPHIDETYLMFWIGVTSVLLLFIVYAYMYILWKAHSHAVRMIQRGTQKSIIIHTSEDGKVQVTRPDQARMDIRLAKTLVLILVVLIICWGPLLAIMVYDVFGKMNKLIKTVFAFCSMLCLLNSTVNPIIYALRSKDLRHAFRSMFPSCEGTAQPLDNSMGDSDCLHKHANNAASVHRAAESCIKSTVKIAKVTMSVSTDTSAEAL
Test: biochemical
Assay type: binding
Set-up: expressed in transfected cells; host or cells: Chinese hamster ovary (CHO) cells, membrane preparation
Settings: [3H]CP-55,940 radioligand; CHO cell membranes stably transfected with human CB1; read-out: hCB1 pKi (converted)
For clarity, give the value followed by its unit.

O=C(NN1CCCCC1)c1cn(-c2ccc(Cl)cc2)c(-c2ccc(Cl)cc2C(F)(F)F)n1 [Example 39] :: 316 nM
O=C(NC1CCCCC1)c1cn(-c2ccc(Cl)cc2)c(-c2ccc(Cl)cc2F)n1 [Example 33] :: 501 nM
Cc1c(C(=O)NOC(C)(C)C)nc(-c2ccc(Cl)cc2)n1-c1ccc(Cl)cc1Cl [Example 11] :: 501 nM
O=C(NN1CCCCC1)c1cn(-c2ccc(Br)cc2)c(-c2ccc(Cl)cc2Cl)n1 [Example 22] :: 398 nM
Cc1c(C(=O)NN2CCOCC2)nc(-c2ccc(Cl)cc2Cl)n1-c1ccc(Cl)cn1 [Example 52] :: 501 nM
Cc1c(C(=O)NN2CCCCC2)nc(-c2ccc(Cl)cc2C(F)(F)F)n1-c1ccc(Cl)cc1 [Example 58] :: 200 nM

Recorded Ki (compound CC(C)(C)ONC(=O)c1cn(-c2ccc(Br)cc2)c(-c2ccc(Cl)cc2Cl)n1 [Example 23] ): 398 nM

O=C(NC1CCCCC1)c1cn(-c2ccc(C(F)(F)F)cc2)c(-c2ccc(Cl)cc2Cl)n1 [Example 48] yielded Ki of 316 nM

----------
assayMetric: melting point

Some compounds with known melting point results, for comparison:
O=C(NN1CCCCC1)c1cn(-c2ccc(C(F)(F)F)cc2)c(-c2ccc(Cl)cc2Cl)n1 :: > 200 °C (dec.)
CCc1c(C(=O)NN2CCCCC2)nc(-c2ccccc2Cl)n1-c1ccc(Cl)cn1 :: 217 to 219 °C
Cc1c(C(=O)NC2CCCCC2)nc(-c2ccc(Cl)cc2Cl)n1-c1cc(F)ccc1F :: 206 to 208 °C

Please fill in: melting point reported for `O=C(NN1CCCCC1)c1nc(-c2ccc(Cl)cc2Cl)n(-c2ccc(Cl)cc2)c1Br` = 181.5 to 183 °C

Recorded result, Cc1c(C(=O)NOC2CCCCO2)nc(-c2ccc(Cl)cc2Cl)n1-c1ccc(Cl)cc1 (centres unmarked) , melting point: 128 to 133 °C

The compound identified as `CCCCCNC(=O)c1cn(-c2ccc(Cl)cc2)c(-c2ccc(Cl)cc2OC)n1` registered its melting point at 115 °C

Documented melting point of `COc1ccc(-n2cc(C(=O)NN3CCCCC3)nc2-c2ccc(Cl)cc2Cl)cc1` : 178 to 179 °C

Memo: `Cc1c(C(=O)NN2CCCCCC2)nc(-c2ccc(Cl)cc2Cl)n1-c1ccc(Cl)cc1` , reported melting point: 147 to 149 °C

Kindly note the recorded melting point for `Cc1cccnc1-c1nc(C(=O)NC2CCCCC2)c(C)n1-c1ccc(Cl)cc1` , which is 188 to 190 °C

Entry `Cc1c(C(=O)NC2CCCC2)nc(-c2ccc(Cl)cc2Cl)n1-c1ccc(Cl)cc1` — recorded melting point = 172 °C

For this compound ( `O=C(NC1CCCCC1)c1cn(-c2ccc(C(F)(F)F)cc2)c(-c2ccc(Cl)cc2Cl)n1` ), measured melting point is 199 to 200 °C

Recorded result, `Cc1c(C(=O)NN2CCCCC2)nc(-c2ccc(Cl)cc2F)n1-c1ccc(Cl)cc1` , melting point: 195 °C

Form: compound = Cc1c(C(=O)NN2CC3CCCC3C2)nc(-c2ccc(Cl)cc2Cl)n1-c1ccc(Cl)cc1 (centres unmarked) ; melting point = 143 to 146 °C

In plain terms, `O=C(NN1CCCCC1)c1cn(-c2ccc(F)cc2)c(-c2ccc(Cl)cc2Cl)n1` has a documented melting point of 175 to 176 °C
